- System: greenhouse red spider mite (Tetranychus urticae)
- Assay explanation: Tetranychus test (OP-resistant/dip treatment)
- Format: in vivo
- Assay context: 168 h, 100 ppm active compound, infested bean plants (Phaseolus vulgaris) dipped, OP-resistant, after 7 d, read-out: Kill rate in % after 7 d
The compounds listed here are annotated with their pest or weed control at 100 ppm.
# number then unit; no other words

> print(dat)
                                   compound                       experimental.target  result
1  Cc1ccccc1C1=NC(c2ccc(-c3ccc(-c4nc(C(C)(C)C)no4)cc3)cc2)CC1 (stereo not shown)  greenhouse red spider mite (Tetranychus urticae)     98%
2  CC(C)(C)c1nc(-c2ccc(-c3ccc(C4CCC(c5c(F)cccc5F)=N4)c(F)c3)cc2)no1 (stereo not shown)  greenhouse red spider mite (Tetranychus urticae)     98%
3  Fc1cc(-c2ccc(-c3noc(C(F)(F)F)n3)cc2)ccc1C1CCC(c2c(F)cccc2F)=N1 (stereo not shown)  greenhouse red spider mite (Tetranychus urticae)     98%
4  Cc1nc(-c2ccc(-c3ccc(C4CCC(c5c(F)cccc5F)=N4)cc3)cc2)cs1 (stereo not shown)  greenhouse red spider mite (Tetranychus urticae)     90%
5  Cc1ccccc1C1=NC(c2ccc(-c3ccc(-c4noc(C(C)(C)C)n4)cc3)cc2)CC1 (stereo not shown)  greenhouse red spider mite (Tetranychus urticae)     98%
6  CC(C)(C)c1noc(-c2ccc(-c3ccc(C4CCC(c5c(F)cccc5F)=N4)c(F)c3)cc2)n1 (stereo not shown)  greenhouse red spider mite (Tetranychus urticae)     98%
7  CCOc1ccc(-c2ccc(-c3ccc(C4CCC(c5c(F)cccc5F)=N4)cc3)cc2)s1 (stereo not shown)  greenhouse red spider mite (Tetranychus urticae)     95%
8  N#Cc1cnn(-c2ccc(-c3ccc(C4CCC(c5c(F)cccc5F)=N4)cc3)cc2)c1 (stereo not shown)  greenhouse red spider mite (Tetranychus urticae)     90%

Query :: Consider the compound CCOC(=O)[C@H]1CC(c2c(F)cccc2F)=N[C@H]1c1ccc(-c2ccc(-c3noc(C(F)(F)F)n3)cc2)cc1 (racemic) and give its recorded pest or weed control at 100 ppm.
Result :: 95%

Query :: Consider the compound Cc1ccccc1C1=NC(c2ccc(-c3ccc(-c4noc(C(F)(F)F)n4)cc3)cc2)CC1 (stereo not shown) and give its recorded pest or weed control at 100 ppm.
Result :: 95%

---

- Assay explanation: log P determination by HPLC on reversed-phase column (EEC Directive 79/831 Annex V.A8)
- Format: physicochemical
- Assay context: reversed-phase C18 HPLC column; acidic range, pH 2.3, 0.1% aqueous phosphoric acid/acetonitrile, 43° C.; marked a) in tables; read-out: log P (pH 2.3)
Endpoint: chromatographic logP
Number, no unit, nothing else.

Recorded chromatographic logP, per entry:
> print(dat)
                                   molecule  quantitative.result
1  CC(=O)NC(CCC(=O)c1ccccc1C)c1ccc(Br)cc1 (centres unmarked)                 3.33
2  Cc1ccccc1C1=NC(c2ccc(-c3ccc(-c4nc(C(C)(C)C)no4)cc3)cc2)CC1 (centres unmarked)                 4.18
3  CCOC(=O)[C@H]1CC(c2c(F)cccc2F)=N[C@H]1c1ccc(-c2ccc(-c3noc(C(F)(F)F)n3)cc2)cc1 (racemic)                 5.18

Query :: Consider the molecule COc1ccc(-c2ccc(-c3ccc(C4CCC(c5c(F)cccc5F)=N4)cc3)cc2)s1 (centres unmarked) and give its recorded chromatographic logP.
Result :: 4.35
